Measured selectivity ratio accompanies every entry in the list below.
Test: Selectivity index, ratio of CC50 for human MT4 cells to EC50 for HIV1 3B
Assay type: toxicity, cell-based
Conditions: read-out: Ratio CC50/EC50
value-kind: selectivity ratio

smiles-data: CCOC(=O)/C(O)=C/C(=O)c1cn(Cc2ccc(F)c(F)c2)c2cccc(OC)c12
qualifier: >
assay-result: 2
//
smiles-data: CCOC(=O)/C(O)=C/C(=O)c1cn(Cc2cc(F)cc(F)c2)c2cccc(OC)c12
qualifier: >
assay-result: 5.8
//
smiles-data: COc1cccc2c1c(C(=O)/C=C(\O)C(=O)O)cn2Cc1cc(F)c(F)c(F)c1
qualifier: =
assay-result: 10.5
//
smiles-data: CCOC(=O)/C(O)=C/C(=O)c1cn(Cc2c(F)cccc2F)c2cccc(OC)c12
qualifier: >
assay-result: 31.1
//
smiles-data: COc1cccc2c1c(C(=O)/C=C(\O)C(=O)O)cn2Cc1cc(F)ccc1F
qualifier: =
assay-result: 113
//
smiles-data: CCOC(=O)/C(O)=C/C(=O)c1cn(Cc2ccc(F)c(F)c2F)c2cccc(OC)c12
qualifier: >
assay-result: 13
//
smiles-data: CCOC(=O)/C(O)=C/C(=O)c1cn(Cc2cccc(F)c2F)c2cccc(OC)c12
qualifier: =
assay-result: 11.1
//
smiles-data: CCOC(=O)/C(O)=C/C(=O)c1cn(Cc2ccccc2F)c2cccc(OC)c12
qualifier: =
assay-result: 45.3
//
smiles-data: CCOC(=O)/C(O)=C/C(=O)c1cn(Cc2cc(F)c(F)c(F)c2)c2cccc(OC)c12
qualifier: =
assay-result: 8.4
//
smiles-data: CCOC(=O)/C(O)=C/C(=O)c1cn(Cc2c(F)ccc(F)c2F)c2cccc(OC)c12
qualifier: =
assay-result: 8.4
//
smiles-data: COc1cccc2c1c(C(=O)/C=C(\O)C(=O)O)cn2Cc1ccc(F)c(F)c1F
qualifier: =
assay-result: 19.9
//
smiles-data: COc1cccc2c1c(C(=O)/C=C(\O)C(=O)O)cn2Cc1ccc(F)cc1F
qualifier: =
assay-result: 50.7
//
smiles-data: COc1cccc2c1c(C(=O)/C=C(\O)C(=O)O)cn2Cc1c(F)ccc(F)c1F
qualifier: =
assay-result: 75.5
//
smiles-data: CCOC(=O)/C(O)=C/C(=O)c1cn(Cc2ccc(F)cc2F)c2cccc(OC)c12
qualifier: =
assay-result: 33.7
//
smiles-data: COc1cccc2c1c(C(=O)/C=C(\O)C(=O)O)cn2Cc1cccc(F)c1
qualifier: =
assay-result: 175
//
smiles-data: COc1cccc2c1c(C(=O)/C=C(\O)C(=O)O)cn2Cc1ccc(F)cc1
qualifier: =
assay-result: 70

###

Catalogue of compounds with associated IC50
Molecular target: Human immunodeficiency virus type 1 integrase (Human immunodeficiency virus 1)
Sequence (Q7ZJM1 whole entry): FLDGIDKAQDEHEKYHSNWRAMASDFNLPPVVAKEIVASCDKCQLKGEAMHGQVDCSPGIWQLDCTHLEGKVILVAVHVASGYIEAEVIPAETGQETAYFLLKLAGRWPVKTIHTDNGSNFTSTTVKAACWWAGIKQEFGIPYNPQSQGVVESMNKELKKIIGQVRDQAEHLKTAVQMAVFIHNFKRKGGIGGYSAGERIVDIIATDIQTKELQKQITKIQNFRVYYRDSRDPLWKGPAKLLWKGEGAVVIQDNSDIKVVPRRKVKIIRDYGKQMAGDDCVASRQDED
Assay: Inhibition of HIV1 integrase strand transfer activity by ELISA

smiles-data: COc1cccc2c1c(C(=O)/C=C(\O)C(=O)O)cn2Cc1c(F)cccc1F
IC50 / nM: 80
//
smiles-data: CCOC(=O)/C(O)=C/C(=O)c1cn(Cc2ccc(F)c(F)c2)c2cccc(OC)c12
IC50 / nM: 1560
//
smiles-data: CCOC(=O)/C(O)=C/C(=O)c1cn(Cc2c(F)cccc2F)c2cccc(OC)c12
IC50 / nM: 70
//
smiles-data: COc1cccc2c1c(C(=O)/C=C(\O)C(=O)O)cn2Cc1ccc(F)cc1F
IC50 / nM: 20
